Every entry's value here was drawn from ChEMBL document CHEMBL2176939.

Biological target: Histone deacetylase 2 (Homo sapiens, UniProt Q92769)
Sequence (Q92769 whole entry): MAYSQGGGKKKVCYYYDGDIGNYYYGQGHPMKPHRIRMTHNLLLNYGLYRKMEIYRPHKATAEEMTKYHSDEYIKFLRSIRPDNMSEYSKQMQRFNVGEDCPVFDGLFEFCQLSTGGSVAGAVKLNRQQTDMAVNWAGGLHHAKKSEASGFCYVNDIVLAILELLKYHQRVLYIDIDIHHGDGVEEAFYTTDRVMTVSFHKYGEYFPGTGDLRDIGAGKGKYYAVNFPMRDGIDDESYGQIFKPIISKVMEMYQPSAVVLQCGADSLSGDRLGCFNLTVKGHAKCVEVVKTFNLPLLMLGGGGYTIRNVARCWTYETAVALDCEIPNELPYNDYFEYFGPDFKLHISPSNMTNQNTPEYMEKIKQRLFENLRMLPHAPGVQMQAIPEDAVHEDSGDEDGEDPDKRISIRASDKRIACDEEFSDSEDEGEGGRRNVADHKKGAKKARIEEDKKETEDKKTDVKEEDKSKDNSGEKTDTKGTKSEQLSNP
measurement.name: pIC50
Units for pIC50: none; it is -log10 of a concentration expressed in mol/L.

## Input For `O=C(NO)c1cccc(-c2cn(CCc3ccccc3)nn2)c1` , what is its reported pIC50?
## Output 4.12

###

Below, each of the compounds is paired with its reported GI50 at 72 h value.
Test: Growth inhibition of human PBMC PB-O cells incubated for 72 hrs by MTS assay
Assay type: cell-based

Here's what some known entries look like.
{"columns": ["cpd.smiles", "measurement.name", "result"],
 "data": [
  ["COc1ccc(Cn2ccc3ccc(C(=O)NO)cc32)cc1", "GI50 at 72 h", "97 µM"],
  ["O=C(NO)c1cccc(-c2cn(CCc3ccccc3)nn2)c1", "GI50 at 72 h", "> 100 µM"]
]}

Turning to the following compound.
## Input Give its GI50 at 72 h value. Item: `O=C(NO)c1cccc(-c2cn(CSc3ccccc3)nn2)c1`
## Output > 100 µM

###

Target: Protein deacetylase HDAC6 (Homo sapiens)
Sequence (Q9UBN7 whole entry): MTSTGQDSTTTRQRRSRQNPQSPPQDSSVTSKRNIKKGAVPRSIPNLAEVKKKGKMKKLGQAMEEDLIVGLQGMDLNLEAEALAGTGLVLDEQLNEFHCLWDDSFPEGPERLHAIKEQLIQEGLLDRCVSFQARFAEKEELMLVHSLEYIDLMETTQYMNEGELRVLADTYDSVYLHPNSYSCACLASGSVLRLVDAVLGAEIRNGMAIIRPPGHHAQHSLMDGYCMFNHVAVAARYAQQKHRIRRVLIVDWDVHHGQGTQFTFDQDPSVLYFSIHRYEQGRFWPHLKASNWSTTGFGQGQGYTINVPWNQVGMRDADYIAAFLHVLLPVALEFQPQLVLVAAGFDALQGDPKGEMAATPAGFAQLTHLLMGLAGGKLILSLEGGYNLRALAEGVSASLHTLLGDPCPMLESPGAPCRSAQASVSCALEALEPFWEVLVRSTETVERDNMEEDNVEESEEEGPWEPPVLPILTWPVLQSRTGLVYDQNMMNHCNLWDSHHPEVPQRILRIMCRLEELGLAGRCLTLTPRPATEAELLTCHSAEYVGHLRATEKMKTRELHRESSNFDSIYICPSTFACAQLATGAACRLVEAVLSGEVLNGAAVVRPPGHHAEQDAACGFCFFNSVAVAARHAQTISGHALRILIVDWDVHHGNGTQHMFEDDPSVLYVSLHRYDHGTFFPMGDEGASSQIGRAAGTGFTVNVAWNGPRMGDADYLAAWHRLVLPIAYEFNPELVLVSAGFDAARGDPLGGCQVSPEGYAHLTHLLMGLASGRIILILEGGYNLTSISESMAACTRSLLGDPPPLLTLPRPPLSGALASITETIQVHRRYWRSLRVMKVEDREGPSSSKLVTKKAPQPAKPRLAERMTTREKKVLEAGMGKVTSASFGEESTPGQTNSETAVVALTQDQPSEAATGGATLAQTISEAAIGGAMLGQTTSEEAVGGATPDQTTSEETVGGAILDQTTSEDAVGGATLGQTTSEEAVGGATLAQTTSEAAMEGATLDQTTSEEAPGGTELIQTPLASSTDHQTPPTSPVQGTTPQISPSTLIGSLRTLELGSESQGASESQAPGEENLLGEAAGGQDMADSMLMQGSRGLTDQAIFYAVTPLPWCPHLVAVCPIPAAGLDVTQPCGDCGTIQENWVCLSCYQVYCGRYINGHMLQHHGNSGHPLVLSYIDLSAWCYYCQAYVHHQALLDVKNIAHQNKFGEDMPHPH
measurement.name: pIC50
Field pIC50 (float): negative decimal logarithm of the concentration in molar.

## Input Value wanted: pIC50 (Protein deacetylase HDAC6 (Homo sapiens)) of entry `O=C(NO)c1cccc(-c2cn(CCc3ccsc3)nn2)c1`
## Output 5.96

###

Target: Histone deacetylase 4 (Homo sapiens, UniProt P56524)
Sequence (P56524 whole entry): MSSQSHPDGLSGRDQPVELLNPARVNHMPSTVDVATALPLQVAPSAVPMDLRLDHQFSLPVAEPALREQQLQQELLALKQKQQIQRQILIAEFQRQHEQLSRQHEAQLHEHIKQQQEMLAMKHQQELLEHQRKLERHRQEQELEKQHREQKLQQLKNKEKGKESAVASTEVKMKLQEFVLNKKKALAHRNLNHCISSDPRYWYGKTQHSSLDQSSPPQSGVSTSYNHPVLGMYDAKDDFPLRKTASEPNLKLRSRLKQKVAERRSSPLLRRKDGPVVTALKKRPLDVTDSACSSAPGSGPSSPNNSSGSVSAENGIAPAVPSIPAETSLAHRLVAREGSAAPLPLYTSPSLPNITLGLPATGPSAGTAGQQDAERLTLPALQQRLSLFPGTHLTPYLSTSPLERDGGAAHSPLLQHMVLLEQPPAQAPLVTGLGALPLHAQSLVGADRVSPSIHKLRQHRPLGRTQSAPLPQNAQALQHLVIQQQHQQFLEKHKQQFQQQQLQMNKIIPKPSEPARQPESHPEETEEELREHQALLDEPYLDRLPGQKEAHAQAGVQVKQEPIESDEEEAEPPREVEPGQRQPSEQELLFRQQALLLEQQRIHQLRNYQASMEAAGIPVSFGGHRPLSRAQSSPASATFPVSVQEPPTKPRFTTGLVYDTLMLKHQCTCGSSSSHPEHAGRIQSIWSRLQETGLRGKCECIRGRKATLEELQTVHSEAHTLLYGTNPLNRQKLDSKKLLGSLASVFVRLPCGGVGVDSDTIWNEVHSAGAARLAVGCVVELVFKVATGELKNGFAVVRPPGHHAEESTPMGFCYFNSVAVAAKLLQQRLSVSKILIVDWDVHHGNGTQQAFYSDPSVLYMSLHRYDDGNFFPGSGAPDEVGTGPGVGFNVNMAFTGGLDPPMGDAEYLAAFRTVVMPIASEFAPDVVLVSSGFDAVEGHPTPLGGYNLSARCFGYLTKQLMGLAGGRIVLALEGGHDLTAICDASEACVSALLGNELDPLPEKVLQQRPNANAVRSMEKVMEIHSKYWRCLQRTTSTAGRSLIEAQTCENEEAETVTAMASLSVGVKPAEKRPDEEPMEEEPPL
measurement.name: pIC50
Just the number, please; pIC50 means minus log10 of the concentration in mol/L.

## Input Test system Histone deacetylase 4 (Homo sapiens, UniProt P56524); read-out pIC50; what value for `O=C(NO)c1cccc(-c2cn(Cc3ccccc3)nn2)c1` ?
## Output 4.52

###

Target: Histone deacetylase 1 (Homo sapiens, UniProt Q13547)
Sequence (Q13547 whole entry): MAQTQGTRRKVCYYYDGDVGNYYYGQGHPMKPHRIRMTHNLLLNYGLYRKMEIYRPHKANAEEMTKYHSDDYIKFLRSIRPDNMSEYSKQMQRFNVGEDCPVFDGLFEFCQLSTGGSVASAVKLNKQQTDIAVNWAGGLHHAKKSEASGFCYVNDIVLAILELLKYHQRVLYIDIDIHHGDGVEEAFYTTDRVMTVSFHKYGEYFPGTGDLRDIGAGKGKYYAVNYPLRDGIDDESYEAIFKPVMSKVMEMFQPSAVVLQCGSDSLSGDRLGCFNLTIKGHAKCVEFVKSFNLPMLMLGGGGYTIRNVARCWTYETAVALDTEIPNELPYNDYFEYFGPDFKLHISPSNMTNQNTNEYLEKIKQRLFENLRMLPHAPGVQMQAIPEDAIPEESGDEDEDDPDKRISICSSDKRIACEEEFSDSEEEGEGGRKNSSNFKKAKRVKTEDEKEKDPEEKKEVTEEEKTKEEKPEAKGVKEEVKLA
Assay: Inhibition of HDAC1 by fluorometric assay
measurement.name: IC50 (µM)
State the answer as a number, implicitly in µM.

## Input # IC50 lookup, item `O=C(NO)c1cccc(-c2cn(Cc3ccccc3)nn2)c1`
## Output 41
